- System: Staphylococcus aureus
- assay details: Tested for zone of inhibition against Staphylococcus aureus UC3665 (1 mg/mL, 80 microL/12.7 mm)
- Assay type: functional
reported endpoint: Diameter of inhibition zone (mm)

compound | experimental target | reported endpoint | recorded measurement
CCCC(=O)OC/C(C)=C1/CN(C(=O)c2ccccc2)C1=O | Staphylococcus aureus | Diameter of inhibition zone | 16
CCCC(=O)OC/C(C)=C1/CN(C(=O)CCC)C1=O | Staphylococcus aureus | Diameter of inhibition zone | 0
CCC[C@@H]1C[C@@H](C(=O)N[C@@H]([C@H]2O[C@H](SC)[C@H](O)[C@@H](O)[C@H]2O)[C@H](C)Cl)N(C)C1 [CLINDAMYCIN] | Staphylococcus aureus | Diameter of inhibition zone | 0
CCCCCC(=O)N1C/C(=C(/C)CO)C1=O | Staphylococcus aureus | Diameter of inhibition zone | 0
CCCCCC(=O)OC[C@@H](C)[C@H]1CN(C(=O)CCCCC)C1=O | Staphylococcus aureus | Diameter of inhibition zone | 31
CCCCCC(=O)N1C[C@H]([C@H](C)CNC(C)=O)C1=O | Staphylococcus aureus | Diameter of inhibition zone | 19
CCCC(=O)N1C[C@H]([C@@H](C)COC(C)=O)C1=O | Staphylococcus aureus | Diameter of inhibition zone | 0
CCCCCC(=O)N1C/C(=C(\C)Cn2nnc(C(=O)OC)c2C(=O)OC)C1=O | Staphylococcus aureus | Diameter of inhibition zone | 0
CCCCCC(=O)N1C[C@H]([C@H](C)COC(C)=O)C1=O | Staphylococcus aureus | Diameter of inhibition zone | 36
CCCCOC(=O)N1C[C@H]([C@H](C)CNC(C)=O)C1=O | Staphylococcus aureus | Diameter of inhibition zone | 0
CCCCCC(=O)N1C[C@H]([C@H](C)CF)C1=O | Staphylococcus aureus | Diameter of inhibition zone | 48
CCCCCC(=O)N1C[C@H]([C@H](C)Cn2nnc(C(=O)OC)c2C(=O)OC)C1=O | Staphylococcus aureus | Diameter of inhibition zone | 0
CCCC(=O)OC[C@H](C)[C@H]1CN(C(=O)CCC)C1=O | Staphylococcus aureus | Diameter of inhibition zone | 0
CC(=O)OC[C@@H](C)[C@H]1CN(C(C)=O)C1=O | Staphylococcus aureus | Diameter of inhibition zone | 0
CCCC(=O)OC/C(C)=C1\CN(C(=O)CCC)C1=O | Staphylococcus aureus | Diameter of inhibition zone | 0
CC(=O)OC[C@H](C)[C@H]1CN(C(C)=O)C1=O | Staphylococcus aureus | Diameter of inhibition zone | 0
CCCCCC(=O)N1C/C(=C(\C)COC(C)=O)C1=O | Staphylococcus aureus | Diameter of inhibition zone | 19
CC(=O)OC/C(C)=C1/CN(C(C)=O)C1=O | Staphylococcus aureus | Diameter of inhibition zone | 0
CC(=O)OC/C(C)=C1\CN(C(C)=O)C1=O | Staphylococcus aureus | Diameter of inhibition zone | 0
CCCC(=O)N1C/C(=C(\C)COC(C)=O)C1=O | Staphylococcus aureus | Diameter of inhibition zone | 18
CCCCCC(=O)OC/C(C)=C1/CN(C(=O)CCCCC)C1=O | Staphylococcus aureus | Diameter of inhibition zone | 0
CCCCCC(=O)N1C/C(=C(\C)CN=[N+]=[N-])C1=O | Staphylococcus aureus | Diameter of inhibition zone | 27
